I'd appreciate it if you could supply maximum absorption wavelength values for the items below.
Test protocol: absorption spectrum (maximum absorption wavelength, molar extinction coefficient)
Format: physicochemical
Form entry: value (nm) — number only.

Could you share which maximum absorption wavelength value was measured for COc1c2c3c4c(c(NO)c(=O)c5c(NO)cc(OC)c(c6c(OC)cc(O)c(c1=O)c63)c54)C=C(C)C2 [HC-37c] ? 624

Another molecule to check: COCCOCCOCCOCCOCCOCCOCCOCCOCCOCCOCCOCCOCCC(=O)OC1CCC(Nc2c3c4c5c(c(OC)c(=O)c6c(O)cc(OC)c(c7c(OC)cc(NC8CCC(OC(=O)CCOCCOCCOCCOCCOCCOCCOCCOCCOCCOCCOCCOCCOC)C8)c(c2=O)c74)c65)C(C(C)=O)C(C)=C3)C1 (stereo not drawn) [HB-20c-PEG12] 632

Another molecule to check: CCCNc1c2c3c4c(c(OC)c(=O)c5c(O)cc(OC)c(c6c(OC)cc(NCCC)c(c1=O)c63)c54)C(C(C)=O)C(C)=C2 (stereo not drawn) [HB-33c] 618

Another molecule to check: COC(=O)C(CO)Nc1c(NC(CO)C(=O)OC)c2c(=O)cc(OC)c3c4c(OC)cc(=O)c5c(O)c(OC)c6c(c(c1C=C(C)C6C(C)=O)c23)c54 (stereo not drawn) [HB-24a] 625

Another molecule to check: COc1c2c3c4c(c(NC5CCC(O)CC5)c(=O)c5c(O)cc(OC)c(c6c(OC)cc(NC7CCC(O)CC7)c(c1=O)c63)c54)C=C(C)C2C(C)=O (stereo not drawn) [HB-17d] 624

Another molecule to check: COc1c2c3c4c(c(NCCNCCOCCOCCOCCOCCO)c(=O)c5c(NCCNCCOCCOCCOCCOCCO)c(Br)c(OC)c(c6c(OC)cc(O)c(c1=O)c63)c54)C=C(C)C2C(C)=O (stereo not drawn) 630

----------
I'd appreciate it if you could supply maximum absorption wavelength values for the items below.
Test protocol: absorption spectrum (maximum absorption wavelength, molar extinction coefficient)
Type: physicochemical
Form entry: value (nm) — number only.

Could you share which maximum absorption wavelength value was measured for COCCOCCN1C(=O)CN(C(=O)OCCNc2c(NCCOC(=O)N3CC(=O)N(CCOCCOC)C(=O)C3)c3c(=O)cc(OC)c4c5c(OC)cc(=O)c6c(O)c(OC)c7c(c(c2C=C(C)C7C(C)=O)c34)c65)CC1=O (centres unmarked) [HB-40a-PEG1] ? 624

Another compound to check: COc1c(NC2CCC(C(=O)O)CC2)c2c(=O)cc(OC)c3c4c(OC)cc(=O)c5c(O)c(NC6CCC(C(=O)O)CC6)c6c(c(c1C(C(C)=O)C(C)=C6)c23)c54 (centres unmarked) [HB-14b] 623

Another compound to check: COc1c2c3c4c(c(NCCNCCOCCOCCOCCOCCO)c(=O)c5c(NCCNCCOCCOCCOCCOCCO)cc(OC)c(c6c(OC)cc(O)c(c1=O)c63)c54)C=C(C)C2C(C)=O (centres unmarked) 628

Another compound to check: COc1c2c3c4c(c(NCCOC(=O)N5CC(=O)NC(=O)C5)c(=O)c5c(NCCOC(=O)N6CC(=O)NC(=O)C6)cc(OC)c(c6c(OC)cc(O)c(c1=O)c63)c54)C=C(C)C2C(C)=O (centres unmarked) [HB-40c] 632

Another compound to check: COc1c(O)c2c(=O)cc(OC)c3c4c(OC)cc(=O)c5c(NCCNCCOCCO)c(NCCNCCOCCO)c6c(c(c1C(C(C)=O)C(C)=C6)c23)c54 (centres unmarked) 622

----------
Test protocol: absorption spectrum (maximum absorption wavelength, molar extinction coefficient)
Type: physicochemical
Property measured: molar extinction coefficient

Could you share which molar extinction coefficient value was measured for COc1c2c3c4c(c(NCc5cccc[n+]5CCCC(=O)O)c(=O)c5c(O)cc(OC)c(c6c(OC)cc(NCc7cccc[n+]7CCCC(=O)O)c(c1=O)c63)c54)C=C(C)C2C(C)=O (stereo not drawn) [HB-38d-N—COOH] ? 21,000 M^−1cm^−1

Another compound to check: COc1c2c3c4c(c(NC5CCC(O)CC5)c(=O)c5c(O)cc(OC)c(c6c(OC)cc(NC7CCC(O)CC7)c(c1=O)c63)c54)C=C(C)C2C(C)=O (stereo not drawn) [HB-17d] 25,000 M^−1cm^−1

Another compound to check: COc1c2c3c4c(c(NCCCC(=O)NCCCC[N+](C)(C)C)c(=O)c5c(O)cc(OC)c(c6c(OC)cc(NCCCC(=O)NCCCC[N+](C)(C)C)c(c1=O)c63)c54)C=C(C)C2 [HC-8d-NH—C4-N^+] 30,500 M^−1cm^−1

Another compound to check: CCCNc1c(NCCC)c2c(=O)cc(OC)c3c4c(OC)cc(=O)c5c(O)c(OC)c6c(c(c1C=C(C)C6C(C)=O)c23)c54 (stereo not drawn) [HB-33a] 32,500 M^−1cm^−1

Another compound to check: COCCOCCOCCOCCOCCOCCOCCOCCOCCNC(=O)C1CCC(CNc2c3c4c5c(c(OC)c(=O)c6c(NCC7CCC(C(=O)NCCOCCOCCOCCOCCOCCOCCOCCOCCOC)CC7)cc(OC)c(c7c(OC)cc(O)c(c2=O)c74)c65)CC(C)=C3)CC1 (stereo not drawn) [HC-13d-NH-PEG8] 32,500 M^−1cm^−1

Another compound to check: CCCCCCNc1c2c3c4c(c(OC)c(=O)c5c(O)cc(OC)c(c6c(OC)cc(NCCCCCC)c(c1=O)c63)c54)CC(C)=C2 [HC-34c] 32,500 M^−1cm^−1

Another compound to check: COc1c(O)c2c(=O)cc(OC)c3c4c(OC)cc(=O)c5c(NC6CCC(C(=O)O)CC6)c(NC6CCC(C(=O)O)CC6)c6c(c(c1C(C(C)=O)C(C)=C6)c23)c54 (stereo not drawn) [HB-14a] 27,000 M^−1cm^−1

Another compound to check: COCCOCCOCCOCCOCCOCCOCCC(=O)N1CCC(CNc2c3c4c5c(c(OC)c(=O)c6c(O)cc(OC)c(c7c(OC)cc(NCC8CCN(C(=O)CCOCCOCCOCCOCCOCCOCCOC)CC8)c(c2=O)c74)c65)C(C(C)=O)C(C)=C3)CC1 (stereo not drawn) [HB-31c-PEG6] 33,500 M^−1cm^−1

Another compound to check: COCCOCCC(=O)OCCOCCNc1c2c3c4c(c(OC)c(=O)c5c(O)cc(OC)c(c6c(OC)cc(NCCOCCOC(=O)CCOCCOC)c(c1=O)c63)c54)C(C(C)=O)C(C)=C2 (stereo not drawn) [HB-1c-PEG1] 33,000 M^−1cm^−1

Another compound to check: COc1c(NCc2ccccn2)c2c(=O)cc(OC)c3c4c(OC)cc(=O)c5c(O)c(NCc6ccccn6)c6c(c(c1C(C(C)=O)C(C)=C6)c23)c54 (stereo not drawn) [HB-38b] 18,500 M^−1cm^−1

Another compound to check: CCNNc1c2c3c4c(c(OC)c(=O)c5c(O)cc(OC)c(c6c(OC)cc(NNCC)c(c1=O)c63)c54)C(C(C)=O)C(C)=C2 (stereo not drawn) [HB-36c] 33,500 M^−1cm^−1

Another compound to check: CCNc1c2c3c4c(c(OC)c(=O)c5c(O)cc(OC)c(c6c(OC)cc(NC7CCCC7)c(c1=O)c63)c54)C(C(C)=O)C(C)=C2 (stereo not drawn) [HB-44c] 21,000 M^−1cm^−1

Another compound to check: COC(=O)C1CCC(CNc2c3c4c5c(c(OC)c(=O)c6c(O)cc(OC)c(c7c(OC)cc(NCC8CCC(C(=O)OC)CC8)c(c2=O)c74)c65)C(C(C)=O)C(C)=C3)CC1 (stereo not drawn) [HB-13c-AcE] 28,500 M^−1cm^−1

Another compound to check: COc1c(NCCO)c2c(=O)cc(OC)c3c4c(OC)cc(=O)c5c(O)c(NCCO)c6c(c(c1C(C(C)=O)C(C)=C6)c23)c54 (stereo not drawn) [HB-2b] 31.500 M⁻¹ cm⁻¹

Another compound to check: COc1c2c3c4c(c(NCC5CCC(C(=O)OCCCC[P+](c6ccccc6)(c6ccccc6)c6ccccc6)CC5)c(=O)c5c(O)cc(OC)c(c6c(OC)cc(NCC7CCC(C(=O)OCCCC[P+](c8ccccc8)(c8ccccc8)c8ccccc8)CC7)c(c1=O)c63)c54)C=C(C)C2 (stereo not drawn) [HC-30d-C4-PPh3^+] 32,500 M^−1cm^−1

Another compound to check: COCCOCCOCCOCCOC(=O)C1CCC(CNc2c(O)c3c(=O)cc(OC)c4c5c(OC)cc(=O)c6c(NCC7CCC(C(=O)OCCOCCOCCOCCOC)CC7)c(OC)c7c(c(c2C=C(C)C7)c34)c65)CC1 (stereo not drawn) [HC-13b-PEG4] 30,000 M^−1cm^−1

Another compound to check: COc1c(O)c2c(=O)cc(OC)c3c4c(OC)cc(=O)c5c(NCCOCCO)c(NCCOCCO)c6c(c(c1CC(C)=C6)c23)c54 [HC-1a] 28,000 M^−1cm^−1

Another compound to check: COc1c2c3c4c(c(NCCCS(=O)(=O)O)c(=O)c5c(O)cc(OC)c(c6c(OC)cc(NCS(=O)(=O)O)c(c1=O)c63)c54)C=C(C)C2 [HC-45d] 21,000 M^−1cm^−1

Another compound to check: COCCOCCC(=O)OCCNc1c(NCCOC(=O)CCOCCOC)c2c(=O)cc(OC)c3c4c(OC)cc(=O)c5c(O)c(OC)c6c(c(c1C=C(C)C6)c23)c54 [HC-2a-PEG1] 30,000 M^−1cm^−1

Another compound to check: COc1c(NCCCC(=O)O)c2c(=O)cc(OC)c3c4c(OC)cc(=O)c5c(O)c(NCCCC(=O)O)c6c(c(c1CC(C)=C6)c23)c54 [HC-8b] 28,000 M^−1cm^−1

Another compound to check: COCCOCCC(=O)OC1CCC(Nc2c(NC3CCC(OC(=O)CCOCCOC)CC3)c3c(=O)cc(OC)c4c5c(OC)cc(=O)c6c(O)c(OC)c7c(c(c2C=C(C)C7C(C)=O)c34)c65)CC1 (stereo not drawn) [HB-17a-PEG1] 30,500 M^−1cm^−1
